src = ChEMBL document CHEMBL1158402

molecular target: Melanin-concentrating hormone receptor 1 (Homo sapiens)
pKi: −log10 of the molar value.
readout: pKi

Look over these answered cases.
| compound | target-under-test | value-reported |
| --- | --- | --- |
| Cc1ccc(CN2CCC(=Cc3ccc(C(=O)N[C@H](C)c4ccc(Br)cc4)cc3)CC2)c2ccccc12 | Melanin-concentrating hormone receptor 1 (Homo sapiens) | 5.85 |
| COc1ccc(CN2CCC(=Cc3ccc(C(=O)N[C@H](C)c4ccc(Br)cc4)cc3)CC2)cc1 | Melanin-concentrating hormone receptor 1 (Homo sapiens) | 6.83 |
| C[C@@H](NC(=O)c1ccc(C=C2CCN(Cc3ccccc3)CC2)cc1)c1ccc(Br)cc1 | Melanin-concentrating hormone receptor 1 (Homo sapiens) | 5.59 |
| Cc1ccccc1CNC(=O)c1ccc(CC2CCN(Cc3ccc4c(c3)OCO4)CC2)cc1 | Melanin-concentrating hormone receptor 1 (Homo sapiens) | 5.03 |

(P) CC[C@@H](NC(=O)c1ccc(CC2CCN(Cc3ccc4nccnc4c3)CC2)cc1)c1ccc(I)cc1
(Q) CC[C@@H](NC(=O)c1ccc(CC2CCN(Cc3ccc4ccccc4n3)CC2)cc1)c1ccc(I)cc1
IN: Looking at recorded values for pKi, does P or Q come in lower? Answer format: the label of the selected item.
OUT: Q
(Q: 6.51, P: 7.40)

(P) C[C@@H](NC(=O)c1ccc(CC2CCN(Cc3ccc4c(c3)OCO4)CC2)cc1)c1ccc(I)cc1
(Q) COc1cccc([C@@H](C)NC(=O)c2ccc(CC3CCN(Cc4ccc5c(c4)OCO5)CC3)cc2)c1
(R) CC(NC(=O)c1ccc(CC2CCN(Cc3ccc4c(c3)OCO4)CC2)cc1)c1ccccc1 (stereo unspecified)
(S) CC[C@@H](NC(=O)c1ccc(CC2CCN(Cc3ccc4cccnc4c3)CC2)cc1)c1ccc(I)cc1
IN: Endpoint returns the given compounds ordered by ascending pKi. State the ranking by listing the labels in the requested order.
OUT: R, Q, P, S
(R: 5.38, Q: 6.58, P: 7.29, S: 8.30)

---

As an illustration, consider measured Ki for compounds on Melanin-concentrating hormone receptor 1 (Homo sapiens, UniProt Q99705).
Sequence (Q99705 whole entry): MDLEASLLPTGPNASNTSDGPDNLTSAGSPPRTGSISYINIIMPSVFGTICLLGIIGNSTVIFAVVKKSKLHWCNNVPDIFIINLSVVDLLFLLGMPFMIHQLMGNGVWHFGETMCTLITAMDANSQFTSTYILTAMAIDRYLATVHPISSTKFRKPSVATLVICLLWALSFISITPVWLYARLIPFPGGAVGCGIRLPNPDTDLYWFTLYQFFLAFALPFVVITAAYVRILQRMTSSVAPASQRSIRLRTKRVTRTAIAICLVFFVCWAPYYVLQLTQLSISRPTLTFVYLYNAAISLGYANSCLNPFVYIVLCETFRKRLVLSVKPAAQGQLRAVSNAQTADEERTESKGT
readout: Ki (µM)

Below, each entry is followed by its recorded Ki result.
| smiles-representation | target-under-test | value-unit | Ki |
| --- | --- | --- | --- |
| O=C(N[C@@H]1CCc2ccccc21)c1ccc(CC2CCN(Cc3ccc4c(c3)OCO4)CC2)cc1 | Melanin-concentrating hormone receptor 1 (Homo sapiens, UniProt Q99705) | µM | 4.68 |
| C[C@@H](NC(=O)c1ccc(C=C2CCN(Cc3ccc(-c4ccccc4)cc3)CC2)cc1)c1ccc(Br)cc1 | Melanin-concentrating hormone receptor 1 (Homo sapiens, UniProt Q99705) | µM | 5.11 |

(a) CC[C@@H](NC(=O)c1ccc(CC2CCN(Cc3ccc4cncnc4c3)CC2)cc1)c1ccc(I)cc1
(b) CCC[C@@H](NC(=O)c1ccc(CC2CCN(Cc3ccc4c(c3)OCO4)CC2)cc1)c1ccc(I)cc1
IN: Field: entry with larger Ki (options a / b ). The response must carry the label of the picked entry.
OUT: b
(b: 0.191 µM, a: 0.03 µM)
